assay: yeast display, Sf9 membrane polyspecificity reagent, FACS + sequencing; frameworks hold sequencing errors
attribute measured: polyreactivity (PSR sort gate)

sequence_input=QVQLVESGGGLVQAGGSLRLSCAASGSIFRGNGMGWYRQAPGKERELVAAISRSGGRTYYADSVKGRFTISRDNAKNTVYLQMNSLKPEDTAVYYCNAARTYQYDYWGQGTQVTVSS experimental_result="high polyreactivity"
sequence_input=QVQLVESGGGLVQAGGSLRLSCAASGSILTHYAMGRYRPAPGKERELVAAITWRGGSTYYADSVKGRFTISRDNAKNTVYLQMNSLKTEDTAVYYCAADLSYPDWSRYQWDMDYWGQGTQLTVSS experimental_result="low polyreactivity"
sequence_input=QVQLVESGGGLVQAGGSLRLSCAASGSTFTLNAMGWYRQAPGKERELVADISWSSGRTYYADSVKGRFTISRDNAKNTVYFQMNSLKPEDTAVYYCATDDFWNVKFYAYYPEFDYWGQGTQVTVSS experimental_result="low polyreactivity"
sequence_input=QVQLVESGGGLVQAGGSLRLSCAASGLIFGRNAMGWYRQAPGKERELVAAINNSGGTTYYADSVKGRFTISRDNAKNTVYLQMNSLKPEDTAVYYCNAYFRNWRYSPGGYWGQGTQVTVSS experimental_result="high polyreactivity"
sequence_input=QVQLVESGGGLVQAGGSLRLSCAASGRTFYYNGMGWYRQAPGKERELVATITNGGSTNYADSVKGRFTISRDNAKITVYLQMNSLKPEETAVYYCAKTLASDCYDYWGQGTQVTVSS experimental_result="low polyreactivity"

Source listed as the nanobody polyreactivity screen of Harvey et al. (2022).
